# TESTED SYSTEM: Human thrombin (Homo sapiens, UniProt P00734)
# Construct: conversion of the proenzyme prothrombin to the active enzyme thrombin
# TEST: Test A: determination of thrombin clotting time (TT)
# PARTICULARS: concentration of inhibitor that doubles the thrombin clotting time for human plasma
ENDPOINT LABEL: IC50

1. COc1ccc2c(c1)C(O)(C(=O)N1CCC1C(=O)N(C)Cc1ccc(C(=N)N)cc1)CCC2 (single isomer, unassigned) [Example 37]
< 300 nM

// query Find the recorded IC50 belonging to N=C(N)c1ccc(CNC(=O)[C@@H]2CCN2C(=O)C2(O)c3ccccc3-c3ccccc32)cc1 [Example 38, 9-Hydroxyfluoren-9-yl-C(O)-Aze-Pab×HOAc] and report it.
// result < 300 nM
